assay: Clearance in Wistar rat hepatocytes at 1 uM incubated up to 90 mins by LC-MS/MS analysis; type: ADME, cell-based, Hepatocyte; conditions: Wistar
MEASURED_ENDPOINT: CLhep predicted at 1 µM (mL/min/kg)

A. COc1cc(C(=O)N2CC(C)OCC2C2CC(O)C2)cn2nc(NCc3cccc(Cl)c3)nc12 (centres undefined)
B. COc1cc(C(=O)N2CC(C)OCC2CCO)cc2nc(NCc3cc(Cl)ccn3)oc12 (centres undefined)
C. COc1cc(C(=O)N2CC(C)OCC2CCO)cn2nc(NCc3cccc(Cl)c3)nc12 (centres undefined)
D. COc1cc(C(=O)N2CC(C)C(O)CC2CCO)cc2nc(NCc3cccc(Cl)c3)oc12 (racemic)
# rank above entries by CLhep predicted at 1 µM (max first, min last) Give the labels in the order specified. A, C, B, D
(A: 50 mL/min/kg, C: 31.7 mL/min/kg, B: 20 mL/min/kg, D: 4.5 mL/min/kg)
